- Target of assay: T1, recombinant human CSF-1R (form not stated) (human, UniProt P07333 20-512, limits assumed)
- T1 construct: for the ELISA no species is stated; also called recombinant CSF-1R; recombinant CSF-1R protein
- T1 sequence (P07333 20-512 limits assumed): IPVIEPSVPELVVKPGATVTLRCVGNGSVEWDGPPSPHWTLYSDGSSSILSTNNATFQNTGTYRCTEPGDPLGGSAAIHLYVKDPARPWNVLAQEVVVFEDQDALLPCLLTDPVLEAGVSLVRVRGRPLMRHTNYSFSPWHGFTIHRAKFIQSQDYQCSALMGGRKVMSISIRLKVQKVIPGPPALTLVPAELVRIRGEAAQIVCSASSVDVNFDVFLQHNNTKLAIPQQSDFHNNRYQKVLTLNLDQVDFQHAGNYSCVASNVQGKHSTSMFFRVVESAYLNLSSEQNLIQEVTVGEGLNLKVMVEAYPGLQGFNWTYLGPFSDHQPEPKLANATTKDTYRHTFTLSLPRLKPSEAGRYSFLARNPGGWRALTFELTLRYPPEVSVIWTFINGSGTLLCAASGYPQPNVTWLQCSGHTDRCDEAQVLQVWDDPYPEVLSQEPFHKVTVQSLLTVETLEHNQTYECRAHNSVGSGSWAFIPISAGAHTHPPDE
- Protocol description: BIAcore, mean of 3 (fourth row, unlabelled)
So I've got a bunch of binders here, and I need their kon values.
Give the value in M⁻¹ s⁻¹ but do not write M⁻¹ s⁻¹ after it.

Suppose we examine the binder 969gH2gL4 (antibody, human IgG4 S228P, kappa, name in Kabat numbering, V domains shown, Humanised IgG4 (S241P)/kappa; positions are Kabat; also called Ab969.g7) VH: EVTLKESGPALVKPTQTLTLTCTFSGFSLTTYGMGVGWIRQPPGKALEWLANIWWDDDKYYNPSLKNRLTISKDTSKNQVVLTMTNMDPVDTATYYCARIGPIKYPTAPYRYFDFWGQGTMVTVSS VL: DIQMTQSPSSLSASVGDRVTITCLASEDIYDNLAWYQKKPGKAPKLLIYYASSLQDGVPSRFSGSGSGTDYTLTISSLQPEDFATYYCLQDSEYPWTFGGGTKVEIKR ; what kon value has been reported?
2.56e+06

# input binder: 969gH1gL1 (antibody, human IgG4 S228P, kappa, name in Kabat numbering, V domains shown, Humanised IgG4 (S241P)/kappa; positions are Kabat; also called Ab969.g1) VH: EVTLKESGPALVKPTQTLTLTCTFSGFSLTTYGMGVGWIRQPPGKALEWLANIWWDDDKYYNPSLKNRLTISKDTSKNQAVLTMTNMDPVDTATYYCARIGPIKYPTAPYRYFDFWGQGTMVTVSS VL: DIQMTQSPSSLSASVGDRVTITCLASEDIYDNLAWYQKKPGKAPKLLIYYASSLQDGVPSRFSGSGSGTDYTLTISSLQPEDFATYFCLQDSEYPWTFGGGTKVEIKR ; wanted: its kon
2.58e+06

# input binder: 969gH2gL1 (antibody, human IgG4 S228P, kappa, name in Kabat numbering, V domains shown, Humanised IgG4 (S241P)/kappa; positions are Kabat; also called Ab969.g6) VH: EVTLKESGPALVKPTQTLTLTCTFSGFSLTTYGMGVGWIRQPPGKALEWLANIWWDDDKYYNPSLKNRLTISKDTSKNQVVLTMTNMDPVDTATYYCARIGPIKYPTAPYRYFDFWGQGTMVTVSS VL: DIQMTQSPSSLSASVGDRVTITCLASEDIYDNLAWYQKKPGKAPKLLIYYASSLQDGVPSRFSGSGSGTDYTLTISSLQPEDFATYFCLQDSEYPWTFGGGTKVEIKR ; wanted: its kon
2.47e+06

Data request, read-out kon, for 969gH2gL8 (antibody, human IgG4 S228P, kappa, name in Kabat numbering, V domains shown, Humanised IgG4 (S241P)/kappa, no donor residues; position is Kabat; also called Ab969.g4) VH: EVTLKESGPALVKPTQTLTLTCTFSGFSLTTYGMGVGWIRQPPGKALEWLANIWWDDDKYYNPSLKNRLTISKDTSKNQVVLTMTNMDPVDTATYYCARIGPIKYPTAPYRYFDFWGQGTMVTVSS VL: DIQMTQSPSSLSASVGDRVTITCLASEDIYDNLAWYQQKPGKAPKLLIYYASSLQDGVPSRFSGSGSGTDFTLTISSLQPEDFATYYCLQDSEYPWTFGGGTKVEIKR
1.97e+06
